Tested on: Calu-3
Assay: relative viability EC50 (midpoint between 100% and the lowest measured viability); higher = less toxic
Conditions: 72 h
Counter-ions that a name gives are not always drawn.
Catalogue of relative viability EC50 readings, one per entry.

>  <COMPOUND>
CC1(C)O[C@@H]2C[C@H]3[C@@H]4CCC5=CC(=O)CC[C@]5(C)[C@@]4(F)[C@@H](O)C[C@]3(C)[C@]2(C(=O)CCl)O1 [halcinonide]

>  <relative viability EC50>
> 10 µM

$$$$
>  <COMPOUND>
Oc1ccc(C(O)CNCCCCCCNCC(O)c2ccc(O)c(O)c2)cc1O (stereo not drawn) [hexoprenaline]

>  <relative viability EC50>
> 10 µM

$$$$
>  <COMPOUND>
C=CC[C@]1(O)CC[C@H]2[C@@H]3CCC4=CCCC[C@@H]4[C@H]3CC[C@@]21C

>  <relative viability EC50>
> 10 µM

$$$$
>  <COMPOUND>
COc1cc(Nc2ncc3c(n2)-c2ccc(Cl)cc2C(c2c(F)cccc2OC)=NC3)ccc1C(=O)O

>  <relative viability EC50>
> 10 µM

$$$$
>  <COMPOUND>
CC(NC(C)(C)C)C(=O)c1cccc(Cl)c1 (stereo not drawn)

>  <relative viability EC50>
> 10 µM

$$$$
>  <COMPOUND>
CCC[C@H](NC(=O)[C@@H]1[C@H]2CCC[C@H]2CN1C(=O)[C@@H](NC(=O)[C@@H](NC(=O)c1cnccn1)C1CCCCC1)C(C)(C)C)C(=O)C(=O)NC1CC1

>  <relative viability EC50>
> 10 µM

$$$$
>  <COMPOUND>
Cc1ccccc1N(C)C(=O)c1ccc([S+]([O-])c2nccs2)c([N+](=O)[O-])c1 (stereo not drawn)

>  <relative viability EC50>
3.36 µM

$$$$
>  <COMPOUND>
CN(C)CCCOc1nn(Cc2ccccc2)c2ccccc12

>  <relative viability EC50>
> 10 µM

$$$$
>  <COMPOUND>
CCC1(c2c[nH]cn2)Cc2ccccc2C1

>  <relative viability EC50>
> 10 µM

$$$$
>  <COMPOUND>
CO/N=C(\C(=O)N[C@@H]1C(=O)N2C(C(=O)O)=C(CSC(=O)c3ccco3)CS[C@H]12)c1csc(N)n1 [CEFTIOFUR HYDROCHLORIDE]

>  <relative viability EC50>
> 10 µM

$$$$

-- ask Fill in relative viability EC50 for record CC(c1cc2ccccc2s1)N(O)C(N)=O (stereo not drawn)
-- reply > 10 µM

-- ask Supply measured relative viability EC50 of `CN1[C@H]2C[C@H](OC(=O)[C@H](CO)c3ccccc3)C[C@@H]1[C@@H](O)C2` in your reply.
-- reply > 10 µM

-- ask Entry `CC(C)C[C@@H](N)C1(c2ccc(Cl)cc2)CCC1` needs its relative viability EC50 filled in; supply it.
-- reply > 10 µM

-- ask Identify measured relative viability EC50 associated with `C[C@@H](c1ccc2nccn2c1)n1nnc2ncc(-c3cnn(C)c3)nc21`
-- reply > 10 µM

-- ask Annotate the compound `CC(C)c1ccc(C(=O)c2cccs2)c(SCCCCCCCCN(C)C)n1` with its measured relative viability EC50.
-- reply 3.55 µM

-- ask Kindly indicate its recorded relative viability EC50. Item: `O=C(Cc1ccc(-c2ccc(OCCN3CCOCC3)cc2)cn1)NCc1ccccc1`
-- reply 0.222 µM

-- ask Please report the measured relative viability EC50 for `O=[N+]([O-])/N=C1\NCCN1Cc1ccc(Cl)nc1`
-- reply > 10 µM

-- ask Consider the compound `c1cn2cc(-c3ccc4cn[nH]c4c3)nc(Nc3ccc(N4CCOCC4)cc3)c2n1` and give its recorded relative viability EC50.
-- reply > 10 µM
